In this section we review reported % change 3.5 to 6.5 values for a set of compounds.
# Tested on: Human Oral Mucosa Explant Tissues
# method-description: Effect of final gel pH on anthocyanin uptake into human oral mucosa explant tissues
# Type: in vitro ADME
# test-parameters: explant sample 001; 10% w/w FBR gel

As a guide, the following entries are already answered.
| compound | % change 3.5 to 6.5 |
| --- | --- |
| CC1OC(OCC2OC(Oc3cc4c(O)cc(O)cc4[o+]c3-c3ccc(O)c(O)c3)C(OC3OCC(O)C(O)C3O)C(O)C2O)C(O)C(O)C1O (stereo not shown) [cyanidin 3-xylosylrutinoside] | 522.5% |
| OC[C@H]1O[C@@H](Oc2cc3c(O)cc(O)cc3[o+]c2-c2ccc(O)c(O)c2)[C@H](O)[C@@H](O)[C@@H]1O [cyanidin 3-glucoside] | 131.6% |
| C[C@@H]1O[C@@H](OC[C@H]2O[C@@H](Oc3cc4c(O)cc(O)cc4[o+]c3-c3ccc(O)c(O)c3)[C@H](O)[C@@H](O)[C@@H]2O)[C@H](O)[C@H](O)[C@H]1O [cyanidin 3-rutinoside] | 474.1% |

API: the following record is the query input.
# input Enter reported % change 3.5 to 6.5 observed with Human Oral Mucosa Explant Tissues for OC[C@H]1O[C@@H](Oc2cc3c(O)cc(O)cc3[o+]c2-c2ccc(O)c(O)c2)[C@H](O[C@@H]2OC[C@@H](O)[C@H](O)[C@H]2O)[C@@H](O)[C@@H]1O.[Cl-] [Cyanidin 3-sambubioside, cyanidin 3-sambubioside]
# output 319.4%
